Values were extracted from the supplement of paper PMC10567573.

B1: TPRG1 (parent)
chain: ETIQGFWLLTKIDHWNNEKERILL

Variants of: B1
Test: protein stability index of a GFP-peptide fusion (GPS, HEK-293T) (PSI 1-6); higher = more stable;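 further: lentivirally expressed fusions sorted by FACS into six bins by GFP to DsRed ratio, PSI derived from sequencing read proportions per bin multiplied by bin number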
Details: c terminus: a fixed tail appended
Where protein stability index equals or exceeds 3, the correct label is Met; where it does not, the label is Not met.

Example cases with answers are listed next.
ETIQGFWLLTKIDHWQNEKERILL [N16Q] ... Not met
LTIQGFWLLTKIDHWNNEKERILL [E1L] ... Met

Incoming: Is the recorded value of protein stability index equal to or greater than 3 for this variant? ETIQGFWLLTKKDHWNNEKERILL [I12K]
Outgoing: Not met

Incoming: Subsequent entry: ETIQGFWLLTKIDHWNYEKERILL [N17Y]
Outgoing: Met
